- system: Endothelin receptor, ET-A/ET-B (Homo sapiens) (UniProt P24530+P25101)
- Sequence (P24530 whole entry, looked up): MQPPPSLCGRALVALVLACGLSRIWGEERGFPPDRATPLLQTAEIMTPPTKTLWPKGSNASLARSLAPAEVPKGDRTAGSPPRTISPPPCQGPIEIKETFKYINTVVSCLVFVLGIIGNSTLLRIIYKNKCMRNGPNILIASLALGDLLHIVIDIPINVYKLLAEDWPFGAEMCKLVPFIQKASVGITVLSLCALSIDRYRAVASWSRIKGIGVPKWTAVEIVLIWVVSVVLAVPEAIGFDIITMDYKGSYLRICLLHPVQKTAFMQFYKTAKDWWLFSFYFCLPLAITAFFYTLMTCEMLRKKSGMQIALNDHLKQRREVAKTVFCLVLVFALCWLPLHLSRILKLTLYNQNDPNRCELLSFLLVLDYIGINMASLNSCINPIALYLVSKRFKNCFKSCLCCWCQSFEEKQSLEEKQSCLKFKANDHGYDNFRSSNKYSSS
- Sequence (P25101 whole entry, looked up): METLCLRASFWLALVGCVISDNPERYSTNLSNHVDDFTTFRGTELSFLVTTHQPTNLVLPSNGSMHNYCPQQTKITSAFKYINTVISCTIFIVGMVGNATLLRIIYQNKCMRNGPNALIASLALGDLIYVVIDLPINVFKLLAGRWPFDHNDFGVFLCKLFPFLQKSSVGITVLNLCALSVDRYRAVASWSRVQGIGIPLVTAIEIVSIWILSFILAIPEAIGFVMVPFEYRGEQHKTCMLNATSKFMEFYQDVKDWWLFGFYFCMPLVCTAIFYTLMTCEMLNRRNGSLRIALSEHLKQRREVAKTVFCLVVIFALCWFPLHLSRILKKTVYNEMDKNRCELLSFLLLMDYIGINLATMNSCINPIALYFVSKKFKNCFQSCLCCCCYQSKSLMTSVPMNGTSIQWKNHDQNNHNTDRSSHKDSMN
- assay comment: Compound was evaluated for the selectivity of ET-A receptors (ET-B IC50/ ET-A IC50)
- Format: protein assay
assay metric: Selectivity
Output spec: single numeric token, no unit.

[in] Quote Selectivity reported for Cc1cc(C)c(NS(C)(=O)=O)c(C)c1NC(=O)c1sccc1S(=O)(=O)Nc1onc(C)c1Cl please.
[out] 41700

[in] Quote Selectivity reported for Cc1cc(C)c(OCC(=O)O)c(C)c1NC(=O)c1sccc1S(=O)(=O)Nc1onc(C)c1Cl please.
[out] 23000

[in] Quote Selectivity reported for CC(=O)Oc1c(C)cc(C)c(NC(=O)c2sccc2S(=O)(=O)Nc2onc(C)c2Cl)c1C please.
[out] 6970

[in] Quote Selectivity reported for COC(=O)c1cc(C)cc(C)c1NC(=O)c1sccc1S(=O)(=O)Nc1onc(C)c1Cl please.
[out] 36200

[in] Quote Selectivity reported for Cc1cc2c(cc1C(CCBr)C(=O)c1sccc1S(=O)(=O)Nc1onc(C)c1Cl)OCO2 (stereo not given) please.
[out] 59

[in] Quote Selectivity reported for Cc1cc(C)c(NC(=O)c2sccc2S(=O)(=O)Nc2noc(C)c2Cl)c(C)c1CC#N please.
[out] 8550

[in] Quote Selectivity reported for Cc1noc(NS(=O)(=O)c2ccsc2C(=O)Nc2c(C)c(C)c(C)c(C)c2C)c1Cl please.
[out] 1080

[in] Quote Selectivity reported for Cc1cc(C)c(S(N)(=O)=O)c(C)c1NC(=O)c1sccc1S(=O)(=O)Nc1onc(C)c1Cl please.
[out] 27800

[in] Quote Selectivity reported for Cc1cc(C)c(NC(=O)c2sccc2S(=O)(=O)Nc2onc(C)c2Cl)c(C)c1 please.
[out] 7050

[in] Quote Selectivity reported for Cc1cc(C)c(CC(=O)c2sccc2S(=O)(=O)Nc2onc(C)c2Cl)c(C)c1 please.
[out] 9390

[in] Quote Selectivity reported for Cc1cc(C)c(OS(=O)(=O)N(C)C)c(C)c1NC(=O)c1sccc1S(=O)(=O)Nc1onc(C)c1Cl please.
[out] 1630

[in] Quote Selectivity reported for Cc1cc(C)c(NC(=O)c2sccc2S(=O)(=O)Nc2onc(C)c2Cl)c(C)c1COC(=S)N(C)C please.
[out] 16200

[in] Quote Selectivity reported for Cc1cc(C)c(CNC(=O)c2sccc2S(=O)(=O)Nc2onc(C)c2Cl)c(C)c1 please.
[out] 0.004

[in] Quote Selectivity reported for Cc1nc(C)c(NC(=O)c2sccc2S(=O)(=O)Nc2onc(C)c2Cl)c(C)n1 please.
[out] 9160

[in] Quote Selectivity reported for Cc1cc(C)c(NC(=O)c2sccc2S(=O)(=O)Nc2onc(C)c2Cl)c(C)c1C#N please.
[out] 37700

[in] Quote Selectivity reported for Cc1cc(C)c(N(C)C)c(C)c1NC(=O)c1sccc1S(=O)(=O)Nc1onc(C)c1Cl please.
[out] 36600

[in] Quote Selectivity reported for Cc1cc(C)c(NC(=O)c2sccc2S(=O)(=O)Nc2onc(C)c2Cl)c(C)c1O please.
[out] 10900

[in] Quote Selectivity reported for Cc1cc(C)c(NC(=O)c2sccc2S(=O)(=O)Nc2noc(C)c2Cl)c(C)c1CO please.
[out] 3500

[in] Quote Selectivity reported for Cc1cc(C)c(CC(=O)c2sccc2S(=O)(=O)Nc2onc(C)c2Cl)c(C)c1O please.
[out] 10800

[in] Quote Selectivity reported for COC(=O)Oc1c(C)cc(C)c(NC(=O)c2sccc2S(=O)(=O)Nc2onc(C)c2Cl)c1C please.
[out] 22200

---

- assay comment: Compound was evaluated for the aqueous solubility (AS) in mg/mL (Measured in 0.2 M phosphate buffer of pH 7.4)
- Assay type: physicochemical
- measurement setup: read-out: AS
assay metric: solubility

[in] Quote solubility reported for Cc1cc2c(cc1CC(=O)c1sccc1S(=O)(=O)Nc1onc(C)c1Cl)OCO2 please.
[out] < 10000 µg/mL

[in] Quote solubility reported for Cc1cc(C)c(NC(=O)c2sccc2S(=O)(=O)Nc2onc(C)c2Cl)c(C)c1CC#N please.
[out] < 10000 µg/mL

[in] Quote solubility reported for Cc1cc(C)c(NS(C)(=O)=O)c(C)c1NC(=O)c1sccc1S(=O)(=O)Nc1onc(C)c1Cl please.
[out] < 10000 µg/mL

[in] Quote solubility reported for Cc1cc(C)c(NC(=O)c2sccc2S(=O)(=O)Nc2onc(C)c2C)c(C)c1CC#N please.
[out] < 10000 µg/mL

[in] Quote solubility reported for COc1c(C)cc(C)c(NC(=O)c2sccc2S(=O)(=O)Nc2onc(C)c2Cl)c1C please.
[out] < 10000 µg/mL
